- Target System: T1, HipA toxin (wild type HipA protein) (E. coli, UniProt P23874 1-440)
- T1 construct: also called pET28a-HipA; pEThipA
- T1 sequence (looked up): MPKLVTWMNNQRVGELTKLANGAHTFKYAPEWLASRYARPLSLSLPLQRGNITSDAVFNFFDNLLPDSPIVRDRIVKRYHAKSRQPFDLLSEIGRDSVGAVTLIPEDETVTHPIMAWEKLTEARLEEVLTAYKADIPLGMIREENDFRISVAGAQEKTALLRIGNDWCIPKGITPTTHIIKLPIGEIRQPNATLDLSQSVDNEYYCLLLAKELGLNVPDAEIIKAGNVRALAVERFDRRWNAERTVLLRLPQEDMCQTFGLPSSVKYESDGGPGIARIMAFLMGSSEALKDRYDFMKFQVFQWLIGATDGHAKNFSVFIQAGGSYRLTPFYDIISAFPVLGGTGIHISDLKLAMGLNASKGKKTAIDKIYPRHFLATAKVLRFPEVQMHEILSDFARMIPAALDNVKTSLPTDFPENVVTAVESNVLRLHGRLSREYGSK
- Measurement Notes: fluorescence polarisation; HipA titrated into 50 nM HipB (or HipB(W88A), HipB72) pre-incubated 2 min with 1 nM 5'-6-carboxyfluorescein-labelled hipBA O1O2 DNA; 20 mM Tris-HCl pH 7.5, 100 mM NaCl, 5% glycerol; 10 °C; the affinity is formally between HipA and HipB bound to the DNA
- Test Conditions: both partners purified
Could you please report measured pKd for the items listed next?
# pKd is unitless: minus log10 of the molar concentration; print number only

What does the data say about its pKd? Entry: HipB antitoxin, wild type (natural protein, E. coli, UniProt P23873 1-88, looked up, HipB, antitoxin and repressor of the hipBA operon of Escherichia coli, 88 residues; also called HipB WT; pET15b-HipB; source: E. coli BL21(DE3)pLysS, purified (Ni-NTA)) MMSFQKIYSPTQLANAMKLVRQQNGWTQSELAKKIGIKQATISNFENNPDNTTLTTFFKILQSLELSMTLCDAKNASPESTEQQNLEW 6.00

What does the data say about its pKd? Entry: HipB(W88A) (natural protein, E. coli, UniProt P23873 1-88, looked up, HipB of Escherichia coli with the C-terminal tryptophan 88 changed to alanine, made by site-directed mutagenesis in pET15b-hipB; Strain KLE911; also called HipB(W88A) protein; pET15b-hipB w88a; source: E. coli BL21(DE3)pLysS, purified (Ni-NTA)) MMSFQKIYSPTQLANAMKLVRQQNGWTQSELAKKIGIKQATISNFENNPDNTTLTTFFKILQSLELSMTLCDAKNASPESTEQQNLEA 5.92
